system: HeLa MZ; experiment: whole-cell filipin (free cholesterol) integrated intensity, Z-score; higher = more cholesterol staining; conditions: compound concentration in added solution (µM; 5 µl added to 20 µl cells): 10; 18 h
Counter-ions that a name gives are not always drawn.
METRIC: whole-cell filipin (z-score)
Give bare numbers.

Example entries and their recorded answers appear below.
O=C(CCNNC(=O)c1ccncc1)NCc1ccccc1 [Nialamide]; -0.132
O=C(NCCN1CCOCC1)c1ccc(Cl)cc1 [Moclobemide]; -0.413
CCCCCN(CCCCC)C(=O)C(CCC(=O)O)NC(=O)c1ccc(Cl)c(Cl)c1 (centres undefined) [Lorglumide sodium salt]; -0.52

// batch mode: one whole-cell filipin (z-score) value per listed entry
1. OC(CCN1CCCCC1)(c1ccccc1)C1CC2C=CC1C2 (centres undefined) [Biperiden hydrochloride]
2. Cc1c(Nc2ncccc2C(=O)O)cccc1C(F)(F)F [Flunixin meglumine]
3. C[C@H]1[C@H](NC(=O)/C(=N\OC(C)(C)C(=O)O)c2csc(N)n2)C(=O)N1S(=O)(=O)O [Aztreonam]
4. O=C1CCc2ccc(OCCCCN3CCN(c4cccc(Cl)c4Cl)CC3)cc2N1 [Aripiprazole]
5. COC(=O)C1=C(C)NC(C)=C(C(=O)OC(C)C)C1c1cccc2nonc12 (centres undefined) [Isradipine]
6. Cc1nc2n(c(=O)c1CCN1CCC(c3noc4cc(F)ccc34)CC1)CCCC2 [Risperidone]

Outgoing:
[-0.585, -0.611, -0.428, 2.45, -0.179, 0.264]

* * *

test system: A431; assay: whole-cell filipin (free cholesterol) integrated intensity, Z-score; higher = more cholesterol staining; settings: compound concentration in added solution (µM; 5 µl added to 20 µl cells): 10; 18 h
Structures can show the parent of a compound that is named as a salt.
METRIC: whole-cell filipin (z-score)
Numbers only.

CCc1nn(CCCN2CCN(c3cccc(Cl)c3)CC2)c(=O)n1CCOc1ccccc1 [Nefazodone HCl]; 0.625
CCN(CC)CCNC(=O)c1ccc(N)cc1 [Procainamide hydrochloride]; -0.628
CN1CCN(CCCN2c3ccccc3Sc3ccc(C(F)(F)F)cc32)CC1 [Trifluoperazine dihydrochloride]; -0.826

Now for the compound whose whole-cell filipin (z-score) we want.
According to the records, this compound CN(C)C/C=C(/c1ccc(Br)cc1)c1cccnc1 [Zimelidine dihydrochloride monohydrate] displays whole-cell filipin (z-score) of -0.265

* * *

Assignment: determine reported whole-cell filipin (z-score) for the given compounds.
test system: HeLa MZ; experiment: whole-cell filipin (free cholesterol) integrated intensity, Z-score; higher = more cholesterol staining; details: compound concentration in added solution (µM; 5 µl added to 20 µl cells): 10; 18 h
Where a name gives a salt, the structure may show the parent alone.
Answers are plain numbers.

Example entries and their recorded answers appear below.
COc1cc(-c2ccc(=O)[nH]n2)ccc1OC(F)F; 0.356
C#C[C@]1(OC(C)=O)CC[C@H]2[C@@H]3CCC4=C[C@@H](OC(C)=O)CC[C@@H]4[C@H]3CC[C@@]21C [Ethynodiol diacetate]; 0.371
CCN(CCO)CCCC(C)Nc1ccnc2cc(Cl)ccc12 (centres undefined) [Hydroxychloroquine sulfate]; 0.249
CC(C)(C)NC[C@@H](O)COc1cccc2c1CCCC2=O [(+) -Levobunolol hydrochloride]; -0.0312
C=CCOc1ccccc1OCC(O)CNC(C)C (centres undefined) [Oxprenolol hydrochloride]; 0.262
COc1ccc(C2CNC(=O)C2)cc1OC1CCCC1 (centres undefined); -0.445
CCOC(=O)OC(C)OC(=O)[C@@H]1N2C(=O)[C@@H](NC(=O)[C@H](N)c3ccccc3)[C@H]2SC1(C)C (some centres undefined) [Bacampicillin hydrochloride]; -0.787
COc1c(N2CCNC(C)C2)c(F)cc2c(=O)c(C(=O)O)cn(C3CC3)c12 (centres undefined); 0.333
COc1cnc(NS(=O)(=O)c2ccc(N)cc2)nc1; -0.359
CCC[C@@H]1C[C@@H](C(=O)N[C@@H]([C@H]2O[C@H](SC)[C@H](O)[C@@H](O)[C@H]2O)[C@@H](C)O)N(C)C1 [Lincomycin hydrochloride]; -1.08

// batch mode: one whole-cell filipin (z-score) value per listed entry
1. CC(=O)c1ccc(S(=O)(=O)NC(=O)NC2CCCCC2)cc1 [Acetohexamide]
2. CCCc1nn(C)c2c(=O)[nH]c(-c3cc(S(=O)(=O)N4CCN(C)CC4)ccc3OCC)nc12
3. Cc1ncc([N+](=O)[O-])n1CC(C)O (centres undefined)
4. CC1Cc2ccccc2N1NC(=O)c1ccc(Cl)c(S(N)(=O)=O)c1 (centres undefined) [Indapamide]
5. C#CCN(C)Cc1ccccc1 [Pargyline hydrochloride]
6. C[C@]12C=CC(=O)C=C1CC[C@@H]1[C@@H]2C(=O)C[C@@]2(C)[C@H]1CC[C@]2(O)C(=O)CO
7. CC(C)NCC(O)COc1ccc(CCOCC2CC2)cc1 (centres undefined) [Betaxolol hydrochloride]

Outgoing:
1: -0.947; 2: -0.0955; 3: -0.327; 4: -0.419; 5: -0.65; 6: 0.0271; 7: -0.283

// batch mode: one whole-cell filipin (z-score) value per listed entry
1. CC(C)C(=O)Nc1ccc([N+](=O)[O-])c(C(F)(F)F)c1 [Flutamide]
2. Nc1nc(NC2CC2)c2ncn([C@H]3C=C[C@@H](CO)C3)c2n1 [Abacavir Sulfate]
3. OCCN1CCN(CC/C=C2/c3ccccc3Sc3ccc(Cl)cc32)CC1 [Zuclopenthixol hydrochloride]
4. O=C(O)c1cc(/N=N/c2ccc(S(=O)(=O)Nc3ccccn3)cc2)ccc1O
5. C#C[C@]1(O)CC[C@H]2[C@@H]3[C@H](C)CC4=C(CCC(=O)C4)[C@H]3CC[C@@]21C
6. N[C@@H](Cc1cc(I)c(Oc2ccc(O)c(I)c2)c(I)c1)C(=O)O
7. C#CCN(C)CCCOc1ccc(Cl)cc1Cl [Clorgyline hydrochloride]
8. CCOc1ccccc1OCC1CNCCO1 (centres undefined) [Viloxazine hydrochloride]

Outgoing:
[-0.0656, -0.596, 0.439, 1.46, -0.295, -0.281, -0.252, -0.0106]

// batch mode: one whole-cell filipin (z-score) value per listed entry
1. CCCCOc1cc(C(=O)OCCN(CC)CC)ccc1N [Benoxinate hydrochloride]
2. COc1ccc(C(=O)c2ccccc2O)c(O)c1
3. CC[N+](C)(CC)CCOC(=O)C1c2ccccc2Oc2ccccc21 [Methantheline bromide]
4. Cc1c(Cl)cccc1Nc1ccccc1C(=O)O

Outgoing:
1: -0.0981; 2: 0.232; 3: -0.214; 4: -0.604

// batch mode: one whole-cell filipin (z-score) value per listed entry
1. CNS(=O)(=O)Cc1ccc2[nH]cc(CCN(C)C)c2c1 [Sumatriptan succinate]
2. C[C@H]1c2cccc(O)c2C(=O)C2=C(O)[C@]3(O)C(=O)C(C(N)=O)=C(O)[C@@H](N(C)C)[C@@H]3[C@@H](O)[C@@H]21 [Doxycycline hydrochloride]
3. CC(=O)N1CCN(c2ccc(OCC3COC(Cn4ccnc4)(c4ccc(Cl)cc4Cl)O3)cc2)CC1 (centres undefined)
4. Cc1c(C)c2c(c(C)c1O)CCC(C)(COc1ccc(CC3SC(=O)NC3=O)cc1)O2 (centres undefined)
5. CC(=O)OCC(=O)NCCCOc1cccc(CN2CCCCC2)c1 [Roxatidine Acetate HCl]

Outgoing:
[-0.339, -0.552, 3.7, -0.287, -0.282]

* * *

tested on: A431; experiment: whole-cell filipin (free cholesterol) integrated intensity, Z-score; higher = more cholesterol staining; details: compound concentration in added solution (µM; 5 µl added to 20 µl cells): 10; 18 h
Counter-ions that a name gives are not always drawn.
METRIC: whole-cell filipin (z-score)
Answers are plain numbers.

CC(=O)N(CC(O)CN(C(C)=O)c1c(I)c(C(=O)NCC(O)CO)c(I)c(C(=O)NCC(O)CO)c1I)c1c(I)c(C(=O)NCC(O)CO)c(I)c(C(=O)NCC(O)CO)c1I (stereo not given); -0.268
OCCN1CCN(CC/C=C2/c3ccccc3Sc3ccc(Cl)cc32)CC1 [Zuclopenthixol hydrochloride]; 0.421
CC(=O)O[C@H]1C[C@@H]2CC[C@@H]3[C@H](CC[C@@]4(C)[C@H]3C[C@H]([N+]3(C)CCCCC3)[C@@H]4OC(C)=O)[C@@]2(C)C[C@@H]1N1CCCCC1 [Vecuronium bromide]; 0.0669
CO/N=C(\C(=O)N[C@@H]1C(=O)N2C(C(=O)O)=C(COC(N)=O)CS[C@H]12)c1ccco1 [Cefuroxime sodium salt]; -0.402
O=C1NCCN1c1ncc([N+](=O)[O-])s1; -0.918
Cc1onc(-c2c(Cl)cccc2Cl)c1C(=O)N[C@@H]1C(=O)N2[C@@H]1SC(C)(C)[C@@H]2C(=O)O [Dicloxacillin sodium salt hydrate]; -0.616

// batch mode: one whole-cell filipin (z-score) value per listed entry
1. CN1C(C(=O)Nc2ccccn2)=C(O)c2sccc2S1(=O)=O
2. COc1cccc(N(C)C(=S)Oc2ccc3c(c2)CCCC3)n1 [Liranaftate]
3. CN(C)C(=O)C(CCN1CCC(O)(c2ccc(Cl)cc2)CC1)(c1ccccc1)c1ccccc1 [Loperamide hydrochloride]

Outgoing:
1: -0.432; 2: -0.212; 3: 0.703

// batch mode: one whole-cell filipin (z-score) value per listed entry
1. Clc1ccc(COC(Cn2ccnc2)c2ccc(Cl)cc2Cl)c(Cl)c1 (stereo not given)
2. CC(C)(C)NC(=O)[C@@H]1C[C@@H]2CCCC[C@@H]2CN1C[C@@H](O)[C@H](Cc1ccccc1)NC(=O)[C@H](CC(N)=O)NC(=O)c1ccc2ccccc2n1 [Saquinavir mesylate]
3. Cc1cccc(C)c1NC(=O)C(C)N (stereo not given) [Tocainide hydrochloride]

Outgoing:
1. 0.107
2. 1.12
3. 0.139

// batch mode: one whole-cell filipin (z-score) value per listed entry
1. CCN(CC)CCNC(=O)COc1ccc(OC)cc1 [Mefexamide hydrochloride]
2. OC(CCN1CCCCC1)(c1ccccc1)C1CC2C=CC1C2 (stereo not given) [Biperiden hydrochloride]
3. CN(C)CCN(Cc1ccc(Cl)cc1)c1ccccn1 [Chloropyramine hydrochloride]

Outgoing:
[-0.627, -0.251, 1.63]
